Consider the following compounds; for each one, report its Plant response rating, Large crabgrass.
tested on: large crabgrass (Digitaria sanguinalis); test: Test E pre-/postemergence/post directed; assay type: in vivo; conditions: PREEMERGENCE, Rate 32 g/ha
// keep it numeric: no unit symbol after the value

Enquiry: // query Plant response rating, Large crabgrass value for entry Cc1cnc(-n2ccc(C(F)(F)F)n2)nc1Cc1cccc(C(F)(F)F)c1 [Example 2]
Return: 98

Enquiry: How about COc1cnc(-c2ccc(C(F)(F)F)cc2)nc1Cc1cccc(C(F)(F)F)c1 [Compound 23] ?
Return: 98

Enquiry: How about Cc1cnc(-n2ccc(C(F)(F)F)n2)nc1Cn1ccc(C(F)(F)F)n1 [Compound 52] ?
Return: 98

Enquiry: How about Cc1cnc(-c2ccc(C(F)(F)F)cc2)nc1Cn1ccc(C(F)(F)F)n1 [compound 9] ?
Return: 70

---

Consider the following compounds; for each one, report its Plant response rating, Large crabgrass.
system: large crabgrass (Digitaria sanguinalis); assay: Test C; type: in vivo; set-up: key: 0 was no effect; 100 was complete control; details: PREEMERGENCE, Rate 35 g/ha
// keep it numeric: no unit symbol after the value

Enquiry: // query Plant response rating, Large crabgrass value for entry `Cc1cnc(-c2ccc(C(F)(F)F)cc2)nc1Cc1cccc(OC(F)(F)F)c1`
Return: 100

Enquiry: How about `Cc1cnc(-n2ccc(C(F)(F)F)n2)nc1Cc1cccc(C(F)(F)F)c1` ?
Return: 0

Enquiry: How about `CCc1cnc(-n2ccc(C(F)(F)F)n2)nc1Cc1cccc(C(F)(F)F)c1` ?
Return: 80

Enquiry: How about `Cc1cnc(-n2ccc(C(F)(F)F)n2)nc1C(=O)c1cccc(OC(F)(F)F)c1` ?
Return: 80

---

test system: wild poinsettia (Euphorbia heterophylla); assay: Test C; format: in vivo; parameters: key: 0 was no effect; 100 was complete control; details: PREEMERGENCE, Rate 35 g/ha
Consider the following compounds; for each one, report its Plant response rating, Wild poinsettia.
// keep it numeric: no unit symbol after the value

Enquiry: // query Plant response rating, Wild poinsettia value for entry `Cc1cnc(-n2ccc(C(F)(F)F)n2)nc1C(=O)c1cccc(OC(F)(F)F)c1`
Return: 0

Enquiry: How about `Cc1cnc(-n2cnc(C(F)(F)F)n2)nc1Cc1cccc(C(F)(F)F)c1` ?
Return: 10

Enquiry: How about `Cc1cnc(-c2ccc(C(F)(F)F)cc2)nc1Cc1cccc(C(F)(F)F)c1` ?
Return: 0

Enquiry: How about Cc1cnc(-c2ccc(C(F)(F)F)cc2)nc1C(Cl)c1cccc(C(F)(F)F)c1 (racemic) ?
Return: 0

---

tested on: corn (Zea mays); assay: Test B pre-/postemergence; format: in vivo; set-up: key: 0 is no effect; 10 is complete control; details: Rate 125 g/ha, Preemergence
Consider the following compounds; for each one, report its Plant response rating, Corn.
// keep it numeric: no unit symbol after the value

Enquiry: // query Plant response rating, Corn value for entry `Cc1cnc(-c2ccc(C(F)(F)F)cc2)nc1Cn1ccc(C#N)n1`
Return: 0

Enquiry: How about `Cc1cnc(-c2ccc(C(F)(F)F)cc2)nc1Cn1cc(Br)cn1` ?
Return: 0

Enquiry: How about `Cc1cnc(-n2cnc(C(F)(F)F)c2)nc1C(=O)c1cccc(C(F)(F)F)c1` ?
Return: 1

Enquiry: How about `Cc1cnc(-c2ccc(C(F)(F)F)cc2)nc1C(=O)c1cccc(OC(F)(F)F)c1` ?
Return: 0

Enquiry: How about `CCc1cnc(-n2ccc(C(F)(F)F)n2)nc1C(=O)c1cccc(C(F)(F)F)c1` ?
Return: 0

Enquiry: How about `O=C(c1cccc(C(F)(F)F)c1)c1ccnc(-c2ccc(C(F)(F)F)cc2)n1` ?
Return: 0

Enquiry: How about `Cc1cnc(-n2cnc(C(F)(F)F)n2)nc1Cn1ccc(C(F)(F)F)n1` ?
Return: 8

---

tested on: wheat (Triticum aestivum); assay: Test B pre-/postemergence; assay type: in vivo; design: key: 0 is no effect; 10 is complete control; conditions: Rate 125 g/ha, Preemergence
So basically: is Wheat plant response rating under 1? Then true (1). Not under? Then false (0).

Enquiry: Please determine if `Cc1cnc(-c2ccc(C(F)(F)F)cc2)nc1Cn1ccc(C(F)(F)C(F)(F)F)n1` is below 1 in terms of Wheat plant response rating.
Return: true (1)

Enquiry: How about `Cc1cnc(-c2ccccc2)nc1Cn1ccc(C(F)(F)F)n1` ?
Return: true (1)

Enquiry: How about `Cc1cnc(-c2ccc(C(F)(F)F)cc2)nc1Cc1cccc(C(F)(F)F)c1` ?
Return: false (0)

Enquiry: How about `Cc1cnc(-c2ccc(Cl)cc2)nc1Cn1ccc(C(F)(F)F)n1` ?
Return: true (1)

Enquiry: How about `COc1cnc(-c2ccc(C(F)(F)F)cc2)nc1Cc1cccc(C(F)(F)F)c1` ?
Return: false (0)

Enquiry: How about `Cc1cnc(-n2ccc(C(F)(F)F)n2)nc1Cc1cccc(C(F)(F)F)c1` ?
Return: false (0)

---

system: giant foxtail (Setaria faberii); assay: Test B pre-/postemergence; type: in vivo; conditions: Rate 250 g/ha, Postemergence
Kind request: treat 1 as inclusive, so Plant response rating, Giant foxtail at 1 or higher is Condition met, anything lower is Condition not met.

Enquiry: Tell me whether Plant response rating, Giant foxtail is at least 1 here: `Cc1cnc(-n2ccc(C(F)(F)C(F)(F)F)n2)nc1C(=O)c1cccc(C(F)(F)F)c1`
Return: Condition met

Enquiry: How about `N#Cc1ccc(-c2nccc(C(=O)c3cccc(C(F)(F)F)c3)n2)cc1` ?
Return: Condition not met

Enquiry: How about `Cc1cnc(-c2ccc(C(F)(F)F)cc2)nc1Cn1cnc(C(F)(F)F)n1` ?
Return: Condition met

Enquiry: How about `COc1cnc(-n2ccc(C(F)(F)F)n2)nc1Cc1cccc(C(F)(F)F)c1` ?
Return: Condition not met

Enquiry: How about `Cc1cnc(-n2cnc(C(F)(F)F)n2)nc1C(=O)c1cccc(C(F)(F)F)c1` ?
Return: Condition met

Enquiry: How about `Cc1cnc(-n2cnc(C(F)(F)F)n2)nc1Cc1cccc(C(F)(F)F)c1` ?
Return: Condition met

---

system: pigweed (Amaranthus retroflexus); test: Test B pre-/postemergence; format: in vivo; conditions: Rate 62 g/ha, Postemergence
reported_property: Redroot pigweed plant response rating
// keep it numeric: no unit symbol after the value

Enquiry: For the record Cc1cnc(-n2cnc(C(F)(F)F)c2)nc1C(=O)c1cccc(OC(F)(F)F)c1 [Compound 63] , what value of Redroot pigweed plant response rating is listed for pigweed (Amaranthus retroflexus)?
Return: 8

Enquiry: How about Cc1cnc(-n2ccc(C(F)(F)F)n2)nc1C(=O)c1cccc(C(F)(F)F)c1 [Compound 59] ?
Return: 8

Enquiry: How about CCc1cnc(-n2ccc(C(F)(F)F)n2)nc1C(=O)c1cccc(C(F)(F)F)c1 [Compound 69] ?
Return: 10

Enquiry: How about Cc1cnc(-n2ccc(C(F)(F)F)n2)nc1C(=O)c1ccc(C(F)(F)F)cc1 [Compound 65] ?
Return: 2

Enquiry: How about O=C(c1cccc(C(F)(F)F)c1)c1ccnc(-n2ccc(C(F)(F)F)n2)n1 [Compound 70] ?
Return: 0

---

tested on: bedstraw (Galium aparine); assay: Test B pre-/postemergence; assay type: in vivo; conditions: Rate 250 g/ha, Postemergence
reported_property: Plant response rating, Bedstraw
// keep it numeric: no unit symbol after the value

Enquiry: // query Plant response rating, Bedstraw value for entry `Cc1cnc(-c2ccc(C(F)(F)F)cc2)nc1Cn1cc(Br)cn1`
Return: 7

Enquiry: How about `Cc1cnc(-n2ccc(C(F)(F)C(F)(F)F)n2)nc1C(=O)c1cccc(C(F)(F)F)c1` ?
Return: 9

Enquiry: How about `Cc1cnc(-c2ccc(OC(F)(F)F)cc2)nc1Cc1cccc(C(F)(F)F)c1` ?
Return: 4

---

Consider the following molecules; for each one, report its Cocklebur plant response rating.
test system: cocklebur (Xanthium strumarium); experiment: Test B pre-/postemergence; type: in vivo; design: key: 0 is no effect; 10 is complete control; details: Rate 62 g/ha, Preemergence
// keep it numeric: no unit symbol after the value

Enquiry: // query Cocklebur plant response rating value for entry `Cc1cnc(-c2ccc(C#N)cc2)nc1Cc1cccc(C#N)c1`
Return: 0

Enquiry: How about `CCc1cnc(-n2ccc(C(F)(F)F)n2)nc1Cc1cccc(OC(F)(F)F)c1` ?
Return: 1

Enquiry: How about `Cc1cnc(-c2ccc(F)c(Cl)c2)nc1Cc1cccc(C(F)(F)F)c1` ?
Return: 0

Enquiry: How about `CCc1cnc(-n2cnc(C(F)(F)F)n2)nc1Cc1cccc(OC(F)(F)F)c1` ?
Return: 0

Enquiry: How about `Cc1cnc(-c2ccc(C(F)(F)F)cc2)nc1Cn1cc(I)cn1` ?
Return: 0

Enquiry: How about `Cc1cnc(-c2ccccc2F)nc1Cc1cccc(C(F)(F)F)c1` ?
Return: 0

Enquiry: How about Cc1cnc(-c2ccc(C(F)(F)F)cc2)nc1C(C)c1cccc(C(F)(F)F)c1 (racemic) ?
Return: 0

Enquiry: How about `Cc1cnc(-n2ccc(C(F)(F)F)n2)nc1Cc1cccc(OC(F)(F)F)c1` ?
Return: 1

Enquiry: How about `Cc1cnc(-c2cccc(C(F)(F)F)c2)nc1Cc1cccc(C(F)(F)F)c1` ?
Return: 0

src = patent US6525001B1
